Below: a set of entries, each annotated with reported IC50.
Tested on: NCI-H358
protocol: Tumor cell anti-proliferation assay (CTG assay), NCI-H358
Format: cell-based
protocol conditions: NCI-H358, 3-days incubation, CTG; read-out: IC50 NCI-H358
API: value field is a number in nM; no unit string.

// solved cases for IC50 follow
{"molecule": "C=CC(=O)N1C[C@H](C)N(c2nc(OC[C@@H]3CCCN3C)nc3c(=O)n(-c4cccc5cccc(F)c45)c(C(F)(F)F)nc23)[C@@H](C)C1 (single isomer, unassigned) [Example 34-a]", "numeric result": 202}
{"molecule": "C=CC(=O)N1C[C@H](C)N(c2nc(OC[C@@H]3CCCN3C)nc3c(=O)n(-c4cc(OC)cc5ccccc45)c(C(F)(F)F)nc23)[C@@H](C)C1 (single isomer, unassigned) [Example 35-b]", "numeric result": 206}
{"molecule": "N.N.[Cl][Pt][Cl] [Cisplatin, reference compound]", "numeric result": 25000}

*Q* Request the reported IC50 associated with C=CC(=O)N1C[C@H](C)N(c2nc(OC[C@@H]3CCCN3C)nc3c(=O)n(-c4cccc5cccc(Cl)c45)c(C(F)(F)F)nc23)[C@@H](C)C1 (single isomer, unassigned) [Example 29-b]
*A* 28.6

====

subject of test: KRAS G12C (Homo sapiens, UniProt P01116, G12C)
protocol: KRAS GDP FI assay
Format: biochemical
protocol conditions: kinetic reading Ex580/Em620 for 120 min
Sequence (P01116 1-188 isoform P01116-2 G12C): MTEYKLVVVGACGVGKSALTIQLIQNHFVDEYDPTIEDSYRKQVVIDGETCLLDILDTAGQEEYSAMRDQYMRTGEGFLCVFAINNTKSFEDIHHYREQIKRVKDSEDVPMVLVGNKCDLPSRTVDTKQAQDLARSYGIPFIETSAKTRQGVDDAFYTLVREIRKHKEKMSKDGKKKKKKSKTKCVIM
Below: a set of entries, each annotated with reported log10(IC50).
Give log10 of IC50, with IC50 taken in nM.

{"compound": "C=CC(=O)N1CCN(c2nc(OC[C@@H]3CCCN3C)nc3c(=O)n(-c4cccc5cccc(Cl)c45)c(C(F)(F)F)nc23)[C@@H](C)C1", "subject of test": "KRAS G12C (Homo sapiens, UniProt P01116, G12C)", "log10(IC50)": 2.12}

*Q* Request the reported log10(IC50) associated with C=CC(=O)N1CCN(c2nc(OC[C@@H]3CCCN3C)nc3c(=O)n(-c4cccc5cccc(Cl)c45)c(C(F)(F)F)nc23)C[C@@H]1CC#N [Example 31]
*A* 2.06

*Q* Request the reported log10(IC50) associated with C=CC(=O)N1CCN(c2nc(OC[C@@H]3CCCN3C)nc3c2CCCC(c2c(C)ccc4[nH]ncc24)C3)C[C@@H]1CC#N (some centres unmarked)
*A* 2.09

*Q* Request the reported log10(IC50) associated with C=CC(=O)N1CCN(c2nc(OC[C@@H]3CCCN3C)nc3c(=O)n(-c4cccc5cccc(F)c45)c(C(F)(F)F)nc23)C[C@@H]1CC#N
*A* 2.25

*Q* Request the reported log10(IC50) associated with C=CC(=O)N1C[C@H](C)N(c2nc(OC[C@@H]3CCCN3C)nc3c(=O)n(-c4cccc5cccc(Cl)c45)c(C)nc23)[C@@H](C)C1
*A* 2.28

*Q* Request the reported log10(IC50) associated with C=CC(=O)N1CCN(c2nc(OC[C@@H]3CCCN3C)nc3c(=O)n(-c4cccc5cccc(Cl)c45)c(CC)nc23)[C@@H](C)C1 (single isomer, unassigned)
*A* 2.95

====

protocol: Pharmacokinetics study in plasma of ICR mice, intravenous or oral administration
Type: in vivo
protocol conditions: mouse, 1 mg/kg; IV, 1 mpk, male ICR mice, plasma
result type: C0 (µM)
API: value field is a number in µM; no unit string.

*Q* Request the reported C0 associated with C=CC(=O)N1C[C@H](C)N(c2nc(OC[C@@H]3CCCN3C)nc3c(=O)n(-c4cccc5cccc(Cl)c45)c(C(F)(F)F)nc23)[C@@H](C)C1 (single isomer, unassigned)
*A* 0.659

====

protocol: Pharmacokinetics study in plasma of ICR mice, intravenous or oral administration
Type: in vivo
protocol conditions: mouse, 1 mg/kg; IV, 1 mpk, male ICR mice, plasma
result type: clearance (mL/min/kg)
API: value field is a number in mL/min/kg; no unit string.

*Q* Request the reported clearance associated with C=CC(=O)N1C[C@H](C)N(c2nc(OC[C@@H]3CCCN3C)nc3c(=O)n(-c4cccc5cccc(Cl)c45)c(C(F)(F)F)nc23)[C@@H](C)C1 (single isomer, unassigned)
*A* 25.7

====

subject of test: KRAS G12C (Homo sapiens, UniProt P01116, G12C)
protocol: KRAS G12C nucleotide exchange assay (SOS1-mediated, mant-GDP fluorescence)
Format: biochemical
Set-up: KRas(1-169) G12C protein
protocol conditions: 15 min pre-incubation
Sequence (P01116 1-169 isoform P01116-2 G12C): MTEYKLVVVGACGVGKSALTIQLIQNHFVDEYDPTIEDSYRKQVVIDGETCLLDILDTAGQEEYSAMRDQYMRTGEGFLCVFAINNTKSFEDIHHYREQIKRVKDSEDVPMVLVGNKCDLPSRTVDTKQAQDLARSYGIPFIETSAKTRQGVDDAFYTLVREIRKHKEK
Below: a set of entries, each annotated with reported IC50.
API: value field is a number in nM; no unit string.

// solved cases for IC50 follow
{"compound": "C=CC(=O)N1CCN(c2nc(OC[C@@H]3CCCN3C)nc3c(=O)n(-c4cccc5cccc(C)c45)c(C)nc23)CC1 [Compound 6]", "subject of test": "KRAS G12C (Homo sapiens, UniProt P01116, G12C)", "result type": "IC50", "readout unit": "nM", "numeric result": 1780}
{"compound": "C=CC(=O)N1C[C@H](C)N(c2nc(OC[C@@H]3CCCN3C)nc3c(=O)n(-c4cccc5cccc(Cl)c45)c(C)nc23)C[C@@H]1C [Compound 8]", "subject of test": "KRAS G12C (Homo sapiens, UniProt P01116, G12C)", "result type": "IC50", "readout unit": "nM", "numeric result": 60700}
{"compound": "C=CC(=O)N1CCN(c2nc(OC[C@@H]3CCCN3C)nc3c(=O)n(-c4cccc5cccc(C)c45)c(C)nc23)C[C@@H]1CC#N [Compound 7]", "subject of test": "KRAS G12C (Homo sapiens, UniProt P01116, G12C)", "result type": "IC50", "readout unit": "nM", "numeric result": 390}
{"compound": "C=CC(=O)N1CCN(c2nc(OC[C@@H]3CCCN3C)nc3c(=O)n(-c4cccc5cccc(Cl)c45)c(CC)nc23)C[C@@H]1CC#N [Compound 13]", "subject of test": "KRAS G12C (Homo sapiens, UniProt P01116, G12C)", "result type": "IC50", "readout unit": "nM", "numeric result": 390}
{"compound": "C=CC(=O)N1CCN(c2nc(OC[C@@H]3CCCN3C)nc3c(=O)n(-c4cccc5cccc(C6CC6)c45)c(C)nc23)C[C@@H]1CC#N [Compound 10]", "subject of test": "KRAS G12C (Homo sapiens, UniProt P01116, G12C)", "result type": "IC50", "readout unit": "nM", "numeric result": 840}

Here's the next entry for you.
*Q* Lab request: please report IC50 under test system KRAS G12C (Homo sapiens, UniProt P01116, G12C) for C=CC(=O)N1CCN(c2nc(OC[C@@H]3CCCN3C)nc3c(=O)n(-c4cccc5ccccc45)cnc23)CC1 [Compound 5]
*A* 52300

====

protocol: Pharmacokinetics study in plasma of ICR mice, intravenous or oral administration
Type: in vivo
protocol conditions: mouse, 1 mg/kg; IV, 1 mpk, male ICR mice, plasma
From the text: The purpose of this study is to determine the pharmacokinetics parameters in plasma of compounds in ICR mice following intravenous or oral administration. […] Standard set of parameters including Area Under the Curve (AUC(0-t) and AUC(0-∞)), elimination half-live (T1/2), maximum plasma concentration (Cmax) and time to reach maximum plasma concentration (Tmax) and other parameters were be calculated using Phoenix WinNonlin 7.0 (Pharsight, USA) by the Study Director.
result type: half-life (h)
API: value field is a number in h; no unit string.

*Q* Request the reported half-life associated with C=CC(=O)N1C[C@H](C)N(c2nc(OC[C@@H]3CCCN3C)nc3c(=O)n(-c4cccc5cccc(Cl)c45)c(C(F)(F)F)nc23)[C@@H](C)C1 (single isomer, unassigned) [Example 29-b]
*A* 1.59

====

protocol: Pharmacokinetics study in plasma of ICR mice, intravenous or oral administration
Assay type: in vivo
protocol conditions: mouse, 10 mg/kg; PO, 10 mpk, male ICR mice, fasted, plasma
result type: AUC (µM·h)
API: value field is a number in µM·h; no unit string.

*Q* Request the reported AUC associated with C=CC(=O)N1C[C@H](C)N(c2nc(OC[C@@H]3CCCN3C)nc3c(=O)n(-c4cccc5cccc(Cl)c45)c(C(F)(F)F)nc23)[C@@H](C)C1 (single isomer, unassigned)
*A* 2.58

====

protocol: Pharmacokinetics study in plasma of ICR mice, intravenous or oral administration
Format: in vivo
protocol conditions: mouse, 10 mg/kg; PO, 10 mpk, male ICR mice, fasted, plasma
result type: Cmax (nM)
API: value field is a number in nM; no unit string.

*Q* Request the reported Cmax associated with C=CC(=O)N1C[C@H](C)N(c2nc(OC[C@@H]3CCCN3C)nc3c(=O)n(-c4cccc5cccc(Cl)c45)c(C(F)(F)F)nc23)[C@@H](C)C1 (single isomer, unassigned)
*A* 729
